- assay-explanation: NCI Yeast Anticancer Drug Screen. Data for the CLN2oe strain (AID 163)
- measurement-conditions: S. cerevisiae CLN2oe strain, at 100.0 µM
This is part of a sample that, as a whole, favours compounds with a hit. Of some 79,000 tested, about 15% had one in any assay. The source made the active and inactive calls. Cut-off read from the data, not from the text of the source: active = growth inhibition above about 70%; inactive = the rest.
Labels: active, inactive

INSERT INTO assay_data (compound, answer_label) VALUES
  ('CC1OCC2OC(C)OC(C3C4=C(CC(C)(C)CC4=O)OC4=C3C(=O)CC(C)(C)C4)C2O1 (stereo unspecified)', 'inactive'),
  ('NC(=NCc1ccccc1)N/N=C\c1ccnc2ccccc12', 'active'),
  ('Cc1ccc(NN(NC(=O)OC(C)C)C(=O)OC(C)C)cc1', 'inactive'),
  ('COc1ccc(/C=C/C(=O)C(C)(C)Br)cc1', 'active'),
  ('O=C1c2cc([N+](=O)[O-])ccc2-c2cccc(F)c21', 'inactive'),
  ('COc1cc(C(=O)/C=C/c2ccccc2O)ccc1O', 'active'),
  ('CCN(CC)CCC(=O)c1ccc(Oc2ccc(F)cc2)cc1', 'inactive'),
  ('Cc1ccc2[nH]c3c(C)c4cc[n+](C)cc4c(C)c3c2c1', 'active'),
  ('CCCCCCCCCCCC1=C(O)C(=O)C=C(O)C1=O', 'active'),
  ('COC(=O)CCNc1c2ccccc2nc2cccc([N+](=O)[O-])c12', 'active'),
  ('O=C1C(Nc2ccccc2)=C(Oc2ccccc2)C(=O)c2ccccc21', 'inactive'),
  ('CC(C)c1cc(C(C)C)c(O)c(C([O-])[O-])c1.CC(C)c1cc(C(C)C)c(O)c(C([O-])[O-])c1.CC(C)c1cc(C(C)C)c(O)c(C([OH2+])[OH2+])c1.CC(C)c1cc(C(C)C)c(O)c(C([OH2+])[OH2+])c1.[Cu+2].[Cu+2].[OH3+].[OH3+]', 'active'),
  ('CC(C(=O)N1C(=O)N(C(=O)[C@H](C)C(O)c2ccccc2)[C@H](c2ccccc2)[C@H]1c1ccccc1)[C@@H](O)c1ccccc1 (stereo partly specified)', 'inactive'),
  ('N#CN1C2CCC1CC(=O)C2', 'inactive'),
  ('O=C1C(=O)c2ccccc2C=C1[N+](=O)[O-]', 'inactive'),
  ('[N-]=N[N+]#I1OC(C(F)(F)F)(C(F)(F)F)c2ccccc21', 'active'),
  ('O=Cc1cccc2ccc3ccccc3c12', 'active'),
  ('S=C(N/N=C(/c1ccccc1)c1ccccn1)N1CCCCCC1', 'inactive'),
  ('Cc1c(Cl)ccc2c1S(=O)(=O)c1cccc(Cl)c1-2', 'inactive'),
  ('COc1ccc(/C(C)=N/OC(=O)c2c(-c3ccccc3Cl)noc2C)cc1CN1CCOCC1', 'inactive'),
  ('Cn1c(=O)c(-c2ccccc2)c(N=[N+]=[N-])c2ccccc21', 'active'),
  ('O=[N+]([O-])c1cccc([N+](=O)[O-])c1S(=O)(=O)c1ccccc1', 'active'),
  ('Cc1ccc2ccc3cccc4ccc1c2c34', 'inactive'),
  ('Cc1ccc(NC(=O)/C(Cl)=C(\Cl)C(=O)O)cc1C', 'active'),
  ('CCOC(=O)C(NC(=O)c1ccccc1)(N1CCN(c2cc3c(cc2F)c(=O)c(C(=O)O)cn3C2CC2)CC1)C(F)(F)F (stereo unspecified)', 'inactive'),
  ('O=[N+]([O-])c1cccc2nc3ccccc3c(NCCCN3CCOCC3)c12', 'active'),
  ('O=c1ssc2ncccc12', 'active'),
  ('Cc1cc(N=Nc2ccc(S(=O)(=O)[O-])cc2)cc(C(=O)[O-])c1[O-].NC1CCCCC1N.[Na+].[Pt+4]', 'active'),
  ('Nc1nc(-c2cccnc2)cc(-c2cc(-c3cccnc3)nc(N)n2)n1', 'inactive'),
  ('c1ccc2c(c1)sc1nc3ccncc3nc12', 'inactive'),
  ('CCOC(=O)C1=C(C(=O)c2ccccc2)C(c2ccccc2[N+](=O)[O-])C(C(=O)c2ccccc2)=C(C(=O)OCC)N1', 'inactive'),
  ('COc1cc(C2c3cc4c(cc3OC(Nc3ccccc3)C2C)OCO4)cc(OC)c1O (stereo unspecified)', 'inactive'),
  ('CCCCCCCCCCC1CCC(=O)O1 (stereo unspecified)', 'active'),
  ('COc1cc(C2c3cc4c(cc3OC(NNc3ccccc3)C2C)OCO4)cc(OC)c1OC (stereo unspecified)', 'active'),
  ('Nc1ncncc1C(C1=C(O)COC1=O)C1=C(O)COC1=O', 'inactive'),
  ('CCc1ccc(NS(=O)(=O)c2ccccc2)c([N+](=O)[O-])c1', 'active');
